I'd be grateful if you could share measured melting point for these entries.

Prompt: What value of melting point has been reported for the following compound? `COc1cccc(C(CC(N)=O)CC(N)=O)c1`
Response: 161 to 162 °C

Prompt: What value of melting point has been reported for the following compound? `C[C@H](O)[C@H]1C(=O)N2C(C(=O)OCc3ccc([N+](=O)[O-])cc3)=C(SCCNC(=O)COc3ccccc3)C[C@H]12`
Response: 115 to 118 °C

Prompt: What value of melting point has been reported for the following compound? `NC(=O)CCn1c(-c2ccc(Cl)cc2)nc2cccnc21`
Response: 248 to 250 °C

Prompt: What value of melting point has been reported for the following compound? `Clc1ccc(-n2c(Cn3ccnc3)nc3ccccc32)cc1`
Response: 121 to 122 °C

Prompt: What value of melting point has been reported for the following compound? CCC(O)c1cc2c(cc1C)OCO2 (stereo unspecified)
Response: 71 to 72 °C

Prompt: What value of melting point has been reported for the following compound? `Cc1nc2c(-c3cccc(N4CCC(N5CCCC5)CC4)c3)cnn2c(N)c1-c1ccc(F)cc1`
Response: 244 to 249 °C

Prompt: What value of melting point has been reported for the following compound? `CNS(=O)(=O)Cc1ccc2[nH]cc(CCN=CNc3ccccc3)c2c1`
Response: 72 to 73 °C

Prompt: What value of melting point has been reported for the following compound? `COc1ccc(C(C)=O)cc1C=CC(=O)O`
Response: 203 °C

Prompt: What value of melting point has been reported for the following compound? `COc1ccccc1C(=O)c1cccc(Br)n1`
Response: 97 to 98 °C

Prompt: What value of melting point has been reported for the following compound? CCCSc1ncc(C(Cc2ccccc2)C(=O)O)n1Cc1ccccc1Cl (stereo unspecified)
Response: 60 to 63 °C

Prompt: What value of melting point has been reported for the following compound? `O=C(O)c1cc(OCc2ccccc2)c(Cc2ccccc2)c(S(=O)(=O)Cl)c1`
Response: 164 to 166 °C

Prompt: What value of melting point has been reported for the following compound? `CC(C)=CCOc1ccc(C(=O)C=Cc2cccs2)c(O)c1`
Response: 100 to 102 °C

Prompt: What value of melting point has been reported for the following compound? N=C(NS(=O)(=O)c1ccc(Cl)cc1)C1CN(c2ccc(Cl)cc2)C(c2ccc(Cl)cc2Cl)=N1 (stereo unspecified)
Response: 165 to 166 °C

Prompt: What value of melting point has been reported for the following compound? `ClCCCc1nnnn1C1CCCCC1`
Response: 82 to 85 °C

Prompt: What value of melting point has been reported for the following compound? O=c1oc(-c2ccccc2)cc(O)c1C(CCCSc1ccccc1)Sc1ccccc1 (stereo unspecified)
Response: 75 to 77 °C

Prompt: What value of melting point has been reported for the following compound? `COc1ccc2oc(CC3CCCCC3)c(CC#N)c2c1`
Response: 73 °C

Prompt: What value of melting point has been reported for the following compound? CCC1CC(=O)N(Cc2cccc(NC(C)=O)c2)N=C1c1ccc(OC)c(OC2CCCC2)c1 (stereo unspecified)
Response: 70 °C

Prompt: What value of melting point has been reported for the following compound? COc1cc(C)cc(OC)c1N(CC1CCCCC1)C(=O)CNC(=O)c1cc2ccccc2n1CCC(=O)NC1C2CC3CC(C2)CC1C3 (stereo unspecified)
Response: 96 °C

Prompt: What value of melting point has been reported for the following compound? `CNC(=O)c1cc(-c2ccc(OC)cc2)nn(CC=Cc2ccc(Cl)cc2)c1=O`
Response: 184 to 185 °C

Prompt: What value of melting point has been reported for the following compound? `Oc1ccc2c(c1Cl)Sc1ccccc1N2`
Response: 110 °C

Prompt: What value of melting point has been reported for the following compound? `CCCc1c(COc2ccc(C(=O)c3cccc(-c4nnn[nH]4)c3)cc2)ccc(C(C)=O)c1O`
Response: 208 to 214 °C

Prompt: What value of melting point has been reported for the following compound? Cc1cc(C(C)NC(=O)N(C)O)c(C)s1 (stereo unspecified)
Response: 104 to 106 °C

Prompt: What value of melting point has been reported for the following compound? `COC(=O)c1cc2c(C)ccc(C)c2n1C(C)=O`
Response: 92 to 93 °C

Prompt: What value of melting point has been reported for the following compound? `O=c1[nH]nc2n1-c1ccccc1OC2`
Response: 198 °C

Prompt: What value of melting point has been reported for the following compound? `COC(=O)Cc1cc(Br)ccc1OCc1ccc(OCc2nc(-c3ccccc3)oc2C)cc1`
Response: 100 to 101 °C

Prompt: What value of melting point has been reported for the following compound? `CCOC(=O)c1c(-c2ccc(F)cc2)cc(-c2cccc3ccccc23)nc1C(C)C`
Response: 113 to 115 °C

Prompt: What value of melting point has been reported for the following compound? `Cn1ncc2c1-c1c(Oc3cccnc3OCCN3CCCC3=O)sc(C(=O)O)c1CC2`
Response: 202 to 204 °C

Prompt: What value of melting point has been reported for the following compound? `COc1ccc(/C=C/c2c(Cl)cncc2Cl)c2c1OC(C)(C)C2`
Response: 114 to 118 °C

Prompt: What value of melting point has been reported for the following compound? `CCN(CC)C(=O)C1=C(C(=O)Nc2ccc(Cl)cc2F)CCCC1`
Response: 105 to 106 °C

Prompt: What value of melting point has been reported for the following compound? `CCN(CC(=O)O)c1ccc(OCC(C)(C)C)c(C#N)c1`
Response: 78 °C

Prompt: What value of melting point has been reported for the following compound? `Cc1sc(C=O)c(C)c1Br`
Response: 44 to 45 °C

Prompt: What value of melting point has been reported for the following compound? `Cc1ccc(-c2c(-c3ccc(S(C)(=O)=O)cc3)cnn(-c3ccc(F)cc3)c2=O)cc1`
Response: 242 to 244 °C

Prompt: What value of melting point has been reported for the following compound? `C#CCOC(=O)c1ccc(O)c(Cl)c1`
Response: 144 to 145 °C

Prompt: What value of melting point has been reported for the following compound? CCCCN1C(=O)C2(COc3cc4c(cc32)OCO4)c2ccccc21 (stereo unspecified)
Response: 119 to 120 °C

Prompt: What value of melting point has been reported for the following compound? `Cc1cccc(C)c1NC(=O)Cn1ccnc1`
Response: 160 to 162 °C

Prompt: What value of melting point has been reported for the following compound? CC(C)(CSc1ccc(Cl)cc1)C(O)C(Oc1ccc(Cl)cc1)n1cncn1 (stereo unspecified)
Response: 132 °C

Prompt: What value of melting point has been reported for the following compound? `CCc1c(C)nc2ccc([N+](=O)[O-])cn2c1=O`
Response: 164 to 165 °C

Prompt: What value of melting point has been reported for the following compound? `CNS(=O)(=O)c1cccc(NC(=O)c2cnn3c(C(F)F)cc(-c4ccc(C(F)(F)F)cc4)nc23)c1`
Response: 255 °C

Prompt: What value of melting point has been reported for the following compound? O=C1CC(c2ccc(Br)cc2)Oc2ccc(Br)cc21 (stereo unspecified)
Response: 115 to 117 °C

Prompt: What value of melting point has been reported for the following compound? `COC(=O)c1ccc(CCc2c[nH]c3nc(N)[nH]c(=O)c23)cc1`
Response: > 220 °C

Prompt: What value of melting point has been reported for the following compound? `Cc1[nH]c(-c2ccncc2)c(C)c1C(=O)C(F)(F)F`
Response: 169 to 170 °C
